Biological target: T1, mouse IL-12Rβ2 (mouse, UniProt P97378 24-874)
T1 construct: Expressed on HEK293T cells transiently transfected with a pcDNA3 plasmid (Genscript clone OMu01776); also called mIL-12RB2; NP_032380.1
T1 sequence: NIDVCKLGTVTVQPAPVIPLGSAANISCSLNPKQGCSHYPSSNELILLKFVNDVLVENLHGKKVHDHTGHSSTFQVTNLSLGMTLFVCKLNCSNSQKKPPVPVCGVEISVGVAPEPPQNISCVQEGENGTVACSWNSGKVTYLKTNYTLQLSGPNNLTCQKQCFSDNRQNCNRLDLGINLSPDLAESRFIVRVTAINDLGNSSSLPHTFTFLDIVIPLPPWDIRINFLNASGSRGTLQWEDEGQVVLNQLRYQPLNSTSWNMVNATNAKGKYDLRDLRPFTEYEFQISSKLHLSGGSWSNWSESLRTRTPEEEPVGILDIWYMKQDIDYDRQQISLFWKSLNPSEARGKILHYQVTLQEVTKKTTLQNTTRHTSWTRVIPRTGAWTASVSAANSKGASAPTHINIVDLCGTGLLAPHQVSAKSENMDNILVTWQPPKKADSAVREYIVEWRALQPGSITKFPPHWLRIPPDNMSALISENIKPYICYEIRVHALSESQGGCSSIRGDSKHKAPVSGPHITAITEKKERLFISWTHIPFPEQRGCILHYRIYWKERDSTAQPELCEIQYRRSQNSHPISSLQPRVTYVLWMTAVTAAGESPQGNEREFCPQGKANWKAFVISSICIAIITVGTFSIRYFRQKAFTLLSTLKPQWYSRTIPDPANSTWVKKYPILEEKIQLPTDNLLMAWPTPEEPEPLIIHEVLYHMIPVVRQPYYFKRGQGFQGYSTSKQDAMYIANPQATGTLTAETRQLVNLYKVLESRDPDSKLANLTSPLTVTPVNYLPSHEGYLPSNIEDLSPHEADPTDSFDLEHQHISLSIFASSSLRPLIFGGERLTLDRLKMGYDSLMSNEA
Assay: flow cytometry, P.E. on transfected HEK293T cells
readout.type: % cells bound (%)
Give just the numeric value; % need not be written.

>  <binder>
anti-IL-12Rβ2 VHH clone 3CRHM200 (VHH, not shown: small tags and cut ends, periplasmic extract; also called 21064) VHH: QVQLQESGGGLVQPGGSLRLSCAASGRTFSNYAMAWFRQAPGTEREFVAGLSGSGGDTAFYDNSVMGRFTISRDSAKNTMWLQINNLKPEDTAVYYCAAATHVVVSYGLVRRRGTYDYWGQGTQVTVSS

>  <observed.value>
17.2

$$$$

Name the recorded % cells bound for anti-IL-12Rβ2 VHH clone 3CRHM85 (VHH, not shown: small tags and cut ends, periplasmic extract; also called 21061) VHH: QVQLQESGGGLVQPGGSLRLSCAASRRTFSKHAMAWFRQAPGKEREFVAVVRWSGIITYYADSVKGRFTISRDDAKNTVYLQMDSLKPEDTAVYYCAAGDYRGNGYYVPGMYDYWGQGTQVTVSS . 0.74

Quick one: anti-IL-12Rβ2 VHH clone 3CRHM18 (VHH, not shown: small tags and cut ends, periplasmic extract) VHH: QVQLQESGGGLVQDGGSLRLSCAASGRTFSNYAMAWFRQAPGTEREFVAGLSGSGGDTAFYDNSVMGRFTISRDSAKNTMWLQINNLKPEDTAVYYCAAATHVVVSYGLVRKRGTYDYWGQGTQVTVSS 15.3

Quick one: anti-IL-12Rβ2 VHH clone 3CRHM12 (VHH, not shown: small tags and cut ends, periplasmic extract) VHH: QVQLQESGGGSVQAGGSLRLSCAVSGRTVSDYAMGWFRQAPGKEREFVAAMSSSETTVYPNSVKGRITISRDNAKNAVYLQMNALKPEDTAVYYCSMGPIVTFQGLARQNEYHYWGQGTQVTVSS 1.21

Data provenance: patent US20260209362A1
